TARGET OF ASSAY: MsSepF_(core) (C-terminal FtsZ-binding core of Methanobrevibacter smithii SepF, residues 54-149) (Methanobrevibacter smithii)
ASSAY PROCEDURE: SPR; Biacore T200, 25 °C, 150 mmol/L NaCl, 25 mmol/L Hepes pH 8; MsSepFcore amine-coupled on CM5 (3200 and 5000 RU), FtsZCTD peptide flowed over; steady-state fit; apparent Kd
ASSAY METRIC: pKd
Field pKd (float): negative decimal logarithm of the concentration in molar.

Query block: Write down pKd measured for item NEDQLDDFIDGIF [FtsZCTD peptide (C-terminal domain of Methanobrevibacter smithii FtsZ)]
Result block: 4.08
